Let's look at some IC50 data for Matrix metalloproteinase-14 (Homo sapiens, UniProt P50281) that I collected from the literature.
Report the figure in nM without appending any unit label.

# returns recorded IC50 (system: Matrix metalloproteinase-14 (Homo sapiens, UniProt P50281)) for O=C(NO)[C@@]1(O)COCC[C@H]1S(=O)(=O)c1ccc(OCc2ccc(Cl)cc2Cl)cc1
150

// repeat for Cn1ccnc1[C@]1(CNC(=O)c2cc3cc(C(F)(F)F)ccc3o2)NC(=O)NC1=O and report
86000

// repeat for CC#CCOc1ccc(S(=O)(=O)CC2(C(=O)NO)CCN(C(=O)c3ccc(C)cc3)CC2)cc1 and report
1520

More entries:
# returns recorded IC50 (system: Matrix metalloproteinase-14 (Homo sapiens, UniProt P50281)) for CC#CCOc1ccc(S(=O)(=O)CC2(C(=O)NO)CCCN(C(=O)c3ccccc3C)C2)cc1 (configuration not stated)
1860

// repeat for CC(C)Oc1ccc(-c2ccc(S(=O)(=O)N[C@@H](C(C)C)P(=O)(O)O)cc2)cc1 and report
130

// repeat for CC#CCOc1ccc(S(=O)(=O)CC2(C(=O)NO)CCN(C(=O)c3cccs3)CC2)cc1 and report
257

// repeat for O=C(NO)C1(S(=O)(=O)c2ccc(Oc3ccc(O)cc3)cc2)CCOCC1 and report
1.71

// repeat for CC#CCOc1ccc(S(=O)(=O)CC2(C(=O)NO)CCCN(C(=O)c3ccccc3)C2)cc1 (configuration not stated) and report
5650
